Target Desc: 7F
Procedure Text: flow cytometry on peptide-pulsed T2 cells, scFv 100 nM

{"columns": ["Binder", "standardized gMFI"],
 "data": [
  ["NYA-2143 (scFv) scFv: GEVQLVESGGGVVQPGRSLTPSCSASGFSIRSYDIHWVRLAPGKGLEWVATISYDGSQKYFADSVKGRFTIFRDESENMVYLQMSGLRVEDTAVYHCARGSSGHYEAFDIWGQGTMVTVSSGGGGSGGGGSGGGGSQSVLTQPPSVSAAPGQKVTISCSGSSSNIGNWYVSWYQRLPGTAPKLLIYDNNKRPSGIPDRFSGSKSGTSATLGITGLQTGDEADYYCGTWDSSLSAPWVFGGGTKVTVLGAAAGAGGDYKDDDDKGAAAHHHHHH", 5.26],
  ["NYA-2048 (scFv) scFv: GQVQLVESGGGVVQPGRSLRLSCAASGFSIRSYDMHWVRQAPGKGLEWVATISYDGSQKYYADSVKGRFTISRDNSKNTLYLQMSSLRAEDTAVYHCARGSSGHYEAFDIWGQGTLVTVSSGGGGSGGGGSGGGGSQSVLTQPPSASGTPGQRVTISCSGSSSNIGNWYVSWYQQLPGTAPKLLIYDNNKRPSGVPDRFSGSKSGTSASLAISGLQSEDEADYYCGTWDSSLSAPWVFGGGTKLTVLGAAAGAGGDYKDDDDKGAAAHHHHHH", 1.46],
  ["NYA-1163 (scFv) scFv: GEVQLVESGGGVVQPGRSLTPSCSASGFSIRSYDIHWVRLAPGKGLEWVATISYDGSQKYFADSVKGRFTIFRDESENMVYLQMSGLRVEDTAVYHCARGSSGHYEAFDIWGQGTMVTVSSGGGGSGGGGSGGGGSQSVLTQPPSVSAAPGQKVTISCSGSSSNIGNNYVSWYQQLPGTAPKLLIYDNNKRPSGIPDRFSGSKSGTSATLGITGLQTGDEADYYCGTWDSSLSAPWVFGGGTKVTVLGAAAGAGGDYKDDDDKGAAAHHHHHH", 1.11],
  ["NYA-1143 (scFv) scFv: GEVQLVESGGGVVQPGRSLTPSCSASGFSIRSYDIHWVRLAPGKGLEWVATISYDGSQKYFADSVKGRFTIFRDESENMVYLQMSGLRVEDTAVYHCARGSSGHYEAFDIWGQGTMVTVSSGGGGSGGGGSGGGGSQSVLTQPPSVSAAPGQKVTISCSGSSSNIGNWYVSWYQQLPGTAPKLLIYDNNKRPSGIPDRFSGSKSGTSATLGITGLQTGDEADYYCGTWDSSLSAPWVFGGGTKVTVLGAAAGAGGDYKDDDDKGAAAHHHHHH", 4.26],
  ["NYA-2047 (scFv) scFv: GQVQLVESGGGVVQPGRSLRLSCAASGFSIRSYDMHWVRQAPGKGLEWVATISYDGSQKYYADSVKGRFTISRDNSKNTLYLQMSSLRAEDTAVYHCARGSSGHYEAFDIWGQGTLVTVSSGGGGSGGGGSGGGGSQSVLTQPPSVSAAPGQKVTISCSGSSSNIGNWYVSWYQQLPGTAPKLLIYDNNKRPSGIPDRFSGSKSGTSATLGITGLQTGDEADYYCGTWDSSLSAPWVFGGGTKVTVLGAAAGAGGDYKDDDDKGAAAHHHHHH", 3.11]
]}

Taken from patent US20230348616A1.
